# Test system: B2 bradykinin receptor, Oryctolagus cuniculus
# protocol.notes: % Inhibition of BK-induced (4x10E-8M) contraction of rabbit jugular vein (RJV) at 10E-5 M concentration
recorded.endpoint: inhibition
Quote the value and follow it with the unit of measurement.

query: Complete the entry with inhibition for Cc1ccc2cccc(OCc3c(C)ccc(N(C)C(=O)CNC(=O)/C=C/c4ccc(C(F)(F)F)cc4)c3C)c2n1
result: 81%

query: Complete the entry with inhibition for Cc1ccc2cccc(OCc3c(Cl)ccc(N(C)C(=O)CNC(=O)/C=C/c4ccc(C(F)(F)F)cc4)c3C#N)c2n1
result: 82%

query: Complete the entry with inhibition for COc1cccc(/C=C/C(=O)NCC(=O)N(C)c2ccc(Cl)c(COc3cccc4ccc(C)nc34)c2C#N)c1
result: 78%

query: Complete the entry with inhibition for CCCOc1c(N(C)C(=O)CNC(=O)/C=C/c2ccc(C(F)(F)F)cc2)ccc(OC)c1COc1cccc2ccc(C)nc12
result: 82%
